Values from the supplement of paper PMC11562712

- test_method_notes: first-order primary biodegradation rate constant k (sorption-corrected, fDis-corrected) (d-1); higher = faster biodegradation
- test_parameters: river segment: Greece (EL) L_Contam; incubation temperature 19 °C
measured_quantity: first-order primary biodegradation rate constant k
In your answer, state the number alone without any accompanying words.

Check out these entries, answers already filled in.
// recorded first-order primary biodegradation rate constant k for Cc1cc(Cl)ccc1OC(C)C(=O)O (configuration not stated) : 0.0787

The measured first-order primary biodegradation rate constant k associated with CC(C)(Oc1ccc(CCNC(=O)c2ccc(Cl)cc2)cc1)C(=O)O [Bezafibrate] reads 0.566

---
The recorded first-order primary biodegradation rate constant k for entry NC(=O)c1cn(Cc2c(F)cccc2F)nn1 [Rufinamide] equals 1.2

first-order primary biodegradation rate constant k measured on CNC(=C[N+](=O)[O-])NCCSCc1ccc(CN(C)C)o1 = 3.75

Lab note: CC1(C)C[C@@H]1C(=O)N/C(=C\CCCCSC[C@H](N)C(=O)O)C(=O)O gave first-order primary biodegradation rate constant k of 5.07

GET /value?item= O=S(=O)(O)NC1CCCCC1 [Cyclamate] &field=first-order primary biodegradation rate constant k returns 0.0837

Lookup result for CC(C)c1ccc(NC(=O)N(C)C)cc1 ; measured first-order primary biodegradation rate constant k: 0.0309

// CCCCc1nc(Cl)c(CO)n1Cc1ccc(-c2ccccc2-c2nnn[nH]2)cc1 : first-order primary biodegradation rate constant k value = 0.343

In plain terms, O=C(O)Cc1ccccc1Nc1c(Cl)cccc1Cl has a documented first-order primary biodegradation rate constant k of 0.0701

Value of first-order primary biodegradation rate constant k reported for the molecule Cc1ccc(NC(=O)N(C)C)cc1Cl is 0.139

---

- test_method_notes: first-order primary biodegradation rate constant k (sorption-corrected, fDis-corrected) (d-1); higher = faster biodegradation
- test_parameters: river segment: Switzerland (CH) C_Contam; incubation temperature 17 °C
# first-order primary biodegradation rate constant k per record follows
Give the figure only, with no unit attached.

// known answers, use as guide
Per the records, this compound ( CC(=O)NC[C@H]1CN(c2ccc(N3CCOCC3)c(F)c2)C(=O)O1 ) has first-order primary biodegradation rate constant k equal to 0.0127

The compound CCCCC(CC)COCC(O)CO (stereo unspecified) showed first-order primary biodegradation rate constant k equal to 6.13

Lookup result for Cn1c(=O)c2c(ncn2C)n(C)c1=O ; measured first-order primary biodegradation rate constant k: 0.172

***
For this compound ( Cc1ccc(C)c(OCCCC(C)(C)C(=O)O)c1 ), measured first-order primary biodegradation rate constant k is 0.237

Memo: CC(C)(C)C(=O)C(Oc1ccc(Cl)cc1)n1ccnc1 (stereo unspecified) , reported first-order primary biodegradation rate constant k: 0.0523

The compound listed as CC(C)(Oc1ccc(Cl)cc1)C(=O)O shows first-order primary biodegradation rate constant k equal to 0.0409

// field: first-order primary biodegradation rate constant k; key: COc1ccc(C(CN(C)C)C2(O)CCCCC2)cc1 (stereo unspecified) ; value = 0.00206

For record CC(C)N(C(=O)CCl)c1ccccc1 the listed first-order primary biodegradation rate constant k is 0.33

Recorded result, O=[N+]([O-])c1ccc(Cc2ccncc2)cc1 , first-order primary biodegradation rate constant k: 0.314

The compound listed as CCN(CC)CC(=O)Nc1c(C)cccc1C shows first-order primary biodegradation rate constant k equal to 0.00975

Recorded first-order primary biodegradation rate constant k (compound Cc1cc(Cl)ccc1OC(C)C(=O)O (stereo unspecified) ): 0.0712
